Cited source for all entries: a melting point compilation (Tetko et al.; mined from patent text by program, amines drawn as free bases though some values may be those of a salt)

// reported melting point per item
recordedEndpoint: melting point

>>> result("COC(=O)Cc1ccc(OCC(C)NC(C)C(O)c2ccccc2)cc1 (stereo not drawn)")
"122 °C"
>>> result("O=[N+]([O-])c1cn2c(n1)O[C@@H](COc1ccc(N3CCC(COc4ccc(C(F)(F)F)cc4)CC3)cc1)C2")
"175 to 180 °C"
>>> result("O=C(O)[C@H](Cc1ccccc1)NS(=O)(=O)c1ccc(N2CCC(Cc3ccccc3)CC2)cc1")
"164 to 165 °C"
>>> result("Cc1nc(-c2ccc(C(C)(C)C)cc2)sc1C(=O)N[C@H](C)[C@](O)(Cn1cncn1)c1ccc(F)cc1F")
"85 to 91 °C"
>>> result("COCCN(CCOC)c1ccc(NC(=O)c2ccc(C)c(Nc3nccc(-c4cccnc4)n3)c2)cc1C(F)(F)F")
"156 to 157 °C"
>>> result("CCCCCCCCNC(=O)N1CCC(S(=O)(=O)c2ccc(CCNC[C@H](O)COc3ccc(O)c(C)c3)cc2)CC1")
"58 to 71 °C"
>>> result("COc1cc2ccc(-c3ccccc3[N+](=O)[O-])cc2cc1OC")
"244 to 246 °C"
>>> result("O=S(=O)(c1ccccc1)c1ccc(Cl)cn1")
"154 to 155 °C"
>>> result("O=C(NCCCCn1ccnc1)c1ccc(Cl)c(Cl)c1")
"86 to 88 °C"
>>> result("OC(CCNCc1ccccc1)(c1ccccc1)c1ccccc1")
"145 to 146 °C"
>>> result("Cc1ccc(S(=O)(=O)N2CCC[C@H](CC(=O)NC(C)C)c3ccccc32)cc1")
"131 to 133 °C"
>>> result("COc1c(N2C[C@H]3[C@@H](F)CC[C@@]3(N)C2)c(F)cc2c(=O)c(C(=O)O)cn([C@@H]3C[C@@H]3F)c12")
"117 to 119 °C"
>>> result("N#CCCNC(=O)c1cccc(-c2ccc3c(c2)N(CCc2cccc(C(F)(F)F)c2)CC3)c1")
"197 to 198 °C"
>>> result("Cc1nc(C)n(-c2cc([C@@H]3C[C@H]3c3nc4ccccc4n3C)nc(C(F)(F)F)n2)n1 (relative stereo)")
"151 to 153 °C"
>>> result("COc1cc2ncnc(N3CCN(C(=S)NCc4ccc(Br)cc4)CC3)c2cc1OC")
"217 to 218 °C"
>>> result("Cc1ccc(C(=O)NC(=S)NCc2ccccc2C(N)=O)cc1")
"145 to 147 °C"
>>> result("O=C(NC(=O)N1CCSC1c1ccccc1OCCN1CCN(c2cccc(F)c2)CC1)c1ccccc1 (stereo not drawn)")
"125 to 127 °C"
>>> result("Cc1c[nH]c(=O)n(CCCCl)c1=O")
"117 to 121 °C"

---

// reported melting point per item
recordedEndpoint: melting point

>>> result("CCC1(C(=O)C(C(O)C(Cl)(Cl)Cl)n2cncn2)CCCC1 (stereo not given)")
"194 to 196 °C"
>>> result("CC(=O)C1CCC2C3CCC4CC=CCC4(C)C3C(OC(=O)CI)CC12C (stereo not given)")
"127 to 129 °C"
>>> result("CS(=O)(=O)c1ccc(-c2cc(=O)[nH]c(C(F)(F)F)c2-c2ccc(F)cc2)cc1")
"232 to 242 °C"
>>> result("CCCC(=O)c1cnn(C)c1S(=O)(=O)NC(=O)Nc1nc(C)nc(OC)n1")
"174 to 176 °C"
>>> result("CN(C)C1CCC(O)(c2ccccc2Cc2ccccc2)CC1 (stereo not given)")
"140 to 141 °C"
>>> result("O=C(Nc1cnc(-c2ccccc2)nc1C(=O)O)OCc1cc2cc(-c3ccccc3)ccc2o1")
"184 to 185 °C"
>>> result("O=c1cc(CO)oc(CO)c1O")
"160 to 161 °C"
>>> result("CCc1cccc(C)c1N1C(=O)CCN(CC)C1=S")
"74 to 77 °C"
>>> result("C#Cc1ccc(Nc2c(C(=O)c3nccs3)ccc(F)c2F)c(F)c1")
"161 °C"
>>> result("CCOC(=O)C(C#N)=NC=C(N)c1ccccc1")
"139 to 140 °C"
